# IC50 per record follows
TESTED ON: Integrin alpha-V/beta-3 (Homo sapiens, UniProt P05106+P06756)
Sequence (P05106 27-788 limits assumed): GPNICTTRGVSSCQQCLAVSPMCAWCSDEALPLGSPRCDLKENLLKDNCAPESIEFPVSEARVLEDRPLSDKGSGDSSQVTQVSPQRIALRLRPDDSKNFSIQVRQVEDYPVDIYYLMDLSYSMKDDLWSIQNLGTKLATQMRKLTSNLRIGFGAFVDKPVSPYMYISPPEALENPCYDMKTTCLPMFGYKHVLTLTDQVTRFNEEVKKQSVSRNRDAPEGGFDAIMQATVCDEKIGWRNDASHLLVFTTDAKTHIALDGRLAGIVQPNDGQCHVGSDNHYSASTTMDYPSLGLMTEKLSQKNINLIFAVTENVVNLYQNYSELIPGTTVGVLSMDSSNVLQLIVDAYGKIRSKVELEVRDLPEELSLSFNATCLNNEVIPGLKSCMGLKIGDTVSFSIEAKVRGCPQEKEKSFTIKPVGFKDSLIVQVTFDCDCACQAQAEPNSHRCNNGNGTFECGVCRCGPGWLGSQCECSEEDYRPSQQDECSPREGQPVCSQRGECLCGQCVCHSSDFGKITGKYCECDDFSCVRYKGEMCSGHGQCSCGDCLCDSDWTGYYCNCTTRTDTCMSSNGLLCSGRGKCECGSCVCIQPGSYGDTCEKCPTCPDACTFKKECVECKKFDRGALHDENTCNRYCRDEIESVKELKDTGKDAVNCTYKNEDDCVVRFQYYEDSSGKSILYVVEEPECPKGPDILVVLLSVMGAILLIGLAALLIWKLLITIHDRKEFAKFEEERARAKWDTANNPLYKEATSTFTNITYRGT
Sequence (P06756 31-889 limits assumed): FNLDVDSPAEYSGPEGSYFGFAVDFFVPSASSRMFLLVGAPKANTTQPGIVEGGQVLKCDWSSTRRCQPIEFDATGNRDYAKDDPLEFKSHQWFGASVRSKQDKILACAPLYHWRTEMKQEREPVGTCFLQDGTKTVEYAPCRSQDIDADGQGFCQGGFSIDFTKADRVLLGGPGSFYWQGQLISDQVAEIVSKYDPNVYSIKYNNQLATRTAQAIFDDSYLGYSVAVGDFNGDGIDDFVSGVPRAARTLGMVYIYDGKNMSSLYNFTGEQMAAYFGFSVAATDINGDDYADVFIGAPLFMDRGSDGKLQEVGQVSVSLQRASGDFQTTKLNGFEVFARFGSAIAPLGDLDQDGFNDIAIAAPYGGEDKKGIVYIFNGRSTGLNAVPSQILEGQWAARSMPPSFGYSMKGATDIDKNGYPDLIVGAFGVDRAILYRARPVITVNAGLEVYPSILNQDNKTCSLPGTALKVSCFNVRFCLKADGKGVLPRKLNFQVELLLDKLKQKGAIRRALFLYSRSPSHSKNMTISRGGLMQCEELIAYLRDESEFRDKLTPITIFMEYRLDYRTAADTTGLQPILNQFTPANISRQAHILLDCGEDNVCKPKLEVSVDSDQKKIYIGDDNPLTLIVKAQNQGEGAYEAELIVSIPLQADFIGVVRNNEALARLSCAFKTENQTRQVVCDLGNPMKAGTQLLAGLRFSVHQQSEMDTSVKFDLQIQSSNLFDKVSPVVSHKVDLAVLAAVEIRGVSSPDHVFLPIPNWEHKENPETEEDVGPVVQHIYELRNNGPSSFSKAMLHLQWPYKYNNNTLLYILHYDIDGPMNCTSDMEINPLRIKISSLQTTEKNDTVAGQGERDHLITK
Sequence (P06756 891-1048 limits assumed): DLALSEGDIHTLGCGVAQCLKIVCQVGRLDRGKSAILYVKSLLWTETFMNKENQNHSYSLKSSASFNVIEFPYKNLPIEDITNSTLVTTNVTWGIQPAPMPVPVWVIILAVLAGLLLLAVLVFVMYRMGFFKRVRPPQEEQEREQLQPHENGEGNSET
PROCEDURE DETAILS: Inhibition of alphaVbeta3 integrin receptor expressed in human 293 cells
Your answer is read as nM, so omit the unit and give the number.

Request: Request body: readout IC50, system Integrin alpha-V/beta-3 (Homo sapiens, UniProt P05106+P06756), query Cc1cc(Cl)cc([C@@H](CC(=O)O)NC(=O)CNC(=O)c2cc(O)cc(NC3=NCC(O)CN3)c2)c1O (some centres undefined) . Return the value.
Result: 18

Request: Request body: readout IC50, system Integrin alpha-V/beta-3 (Homo sapiens, UniProt P05106+P06756), query `O=C(O)C[C@@H](NC(=O)CNC(=O)c1cc(O)cc(NC2=NCCCN2)c1)c1cc(Cl)cc(Br)c1O` . Return the value.
Result: 10

Request: Request body: readout IC50, system Integrin alpha-V/beta-3 (Homo sapiens, UniProt P05106+P06756), query O=C(O)C[C@H](NC(=O)CNC(=O)c1cncc(NC2=NCC(F)CN2)c1)c1cc(Cl)cc(Br)c1O (some centres undefined) . Return the value.
Result: 0.4

Request: Request body: readout IC50, system Integrin alpha-V/beta-3 (Homo sapiens, UniProt P05106+P06756), query O=C(O)C[C@@H](NC(=O)CNC(=O)c1cccc(N=C2NCC(F)CN2)c1)c1cc(Cl)cc(Cl)c1O (some centres undefined) . Return the value.
Result: 1

====

# IC50 per record follows
TESTED ON: Integrin alpha-V/beta-3 (Homo sapiens, UniProt P05106+P06756)
PROCEDURE DETAILS: Inhibition of alphaVbeta3 integrin receptor expressed in human 293 cells
Your answer is read as nM, so omit the unit and give the number.

1. O=C(O)C[C@H](NC(=O)CNC(=O)c1cc(O)cc(N=C2NCC(F)(F)CN2)c1)c1cc(Cl)cc(Br)c1O = 5
2. O=C(O)C[C@@H](NC(=O)CNC(=O)c1cc(O)cc(NC2=NCC(O)CN2)c1)c1cc(Cl)cc(I)c1O (some centres undefined) = 3
3. O=C(O)C[C@@H](NC(=O)CNC(=O)c1cc(O)cc(NC2=NCC(O)CN2)c1)c1cc(Br)cc(Cl)c1O (some centres undefined) = 7

Next compound, please.
Request: Request body: readout IC50, system Integrin alpha-V/beta-3 (Homo sapiens, UniProt P05106+P06756), query `O=C(O)C[C@@H](NC(=O)CNC(=O)c1cccc(NC2=NCCCN2)c1)c1cc(Cl)cc(Cl)c1O` . Return the value.
Result: 4

====

# IC50 per record follows
TESTED ON: Integrin alpha-V/beta-6 (Homo sapiens, UniProt P06756+P18564)
Sequence (P18564 22-788 limits assumed, one chain of several): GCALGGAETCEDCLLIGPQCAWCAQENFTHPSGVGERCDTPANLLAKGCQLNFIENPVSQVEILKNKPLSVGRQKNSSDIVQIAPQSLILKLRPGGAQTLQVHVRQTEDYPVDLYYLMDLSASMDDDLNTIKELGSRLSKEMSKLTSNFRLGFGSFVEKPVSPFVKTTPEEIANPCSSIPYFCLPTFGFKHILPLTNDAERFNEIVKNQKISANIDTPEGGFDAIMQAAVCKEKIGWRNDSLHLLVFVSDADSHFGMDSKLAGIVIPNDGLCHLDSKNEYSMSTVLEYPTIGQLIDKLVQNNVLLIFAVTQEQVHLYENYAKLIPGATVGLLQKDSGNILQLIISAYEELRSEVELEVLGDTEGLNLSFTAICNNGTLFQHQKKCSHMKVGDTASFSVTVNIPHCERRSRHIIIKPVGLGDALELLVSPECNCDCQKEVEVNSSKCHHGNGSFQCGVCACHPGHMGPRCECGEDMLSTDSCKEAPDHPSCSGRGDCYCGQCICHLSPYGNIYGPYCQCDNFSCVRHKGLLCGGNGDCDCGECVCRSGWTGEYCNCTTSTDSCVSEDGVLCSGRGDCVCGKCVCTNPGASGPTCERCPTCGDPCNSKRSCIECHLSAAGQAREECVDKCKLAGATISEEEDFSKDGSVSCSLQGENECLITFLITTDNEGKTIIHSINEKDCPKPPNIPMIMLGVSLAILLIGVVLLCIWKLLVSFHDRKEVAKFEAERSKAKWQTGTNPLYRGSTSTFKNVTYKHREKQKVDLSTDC
PROCEDURE DETAILS: Inhibition of alpha-V-beta-6 integrin receptor in human 293 cells
Type: cell-based, HEK293
Your answer is read as nM, so omit the unit and give the number.

1) O=C(O)C[C@@H](NC(=O)CNC(=O)c1cncc(NC2=NCC(O)CN2)c1)c1cc(Cl)cc(Br)c1O (some centres not stated) = 615
2) O=C(O)C[C@@H](NC(=O)CNC(=O)c1cc(O)cc(NC2=NCC(F)CN2)c1)c1cc(Cl)cc(I)c1O (some centres not stated) = 164
3) O=C(O)C[C@@H](NC(=O)CNC(=O)c1cc(O)cc(NC2=NCC(O)CN2)c1)c1cc(Cl)cc(Br)c1O (some centres not stated) = 52
4) O=C(O)C[C@@H](NC(=O)CNC(=O)c1cc(O)cc(NC2=NCC(O)CN2)c1)c1cc(Cl)cc(Cl)c1O (some centres not stated) = 64

Request: I would be grateful if you could share the reported IC50 for `O=C(O)C[C@@H](NC(=O)CNC(=O)c1cc(O)cc(NC2=NCCCN2)c1)c1cc(Cl)cc(I)c1O` .
Result: 1780

Request: I would be grateful if you could share the reported IC50 for O=C(O)C[C@@H](NC(=O)CNC(=O)c1cncc(NC2=NCC(O)CN2)c1)c1cc(Cl)cc(I)c1O (some centres not stated) .
Result: 622

Request: I would be grateful if you could share the reported IC50 for O=C(O)C[C@@H](NC(=O)CNC(=O)c1cccc(NC2=NCC(O)CN2)c1)c1cc(Cl)cc(Cl)c1O (some centres not stated) .
Result: 20

Hey, just so you know, these numbers are from ChEMBL document CHEMBL1147945.
